- System: SK-MEL-2 melanoma
- runDescription: NCI tumour cell line growth inhibition, 48 h
assayReadout: TGI

Cc1ccc(NC(=S)N=Nc2c(O)[nH]c3ccccc23)cc1 ... > 100 µM

Tell me measured TGI for CC1(C)OC2COC(c3[nH]nc4c(=O)[nH]c(=O)[nH]c34)C2O1 (configuration not stated) please. > 100 µM

Tell me measured TGI for COc1ccccc1N1CCN(CCCOc2ccc(C(=O)/C=C3/C(=O)Nc4ccccc43)cc2)CC1 please. > 80.4 µM

Tell me measured TGI for N#Cc1c2ccc([N+](=O)[O-])cc2c(=O)n2c1sc1ccccc12 please. 53.6 µM

Tell me measured TGI for CC(C)=CCC/C(C)=C/CC/C(C)=C/C1CCC(=O)C1(C)C (configuration not stated) please. 34.1 µM

Tell me measured TGI for CCOC(=O)C1=C(C)N(C2OC(COC(C)=O)C(OC(C)=O)C(OC(C)=O)C2OC(C)=O)C(=O)NC1c1ccccc1 (configuration not stated) please. > 100 µM

----------
- System: SF-539 CNS
- runDescription: NCI tumour cell line growth inhibition, 48 h
assayReadout: TGI (µM)
// return numeric value only (unit: µM, not printed)

Answered examples (4):
O=C(COC(=O)c1cccc2c(=O)c3ccccc3[nH]c12)Nc1ccc(S(=O)(=O)Nc2ncccn2)cc1 ... 39.1
O=C(Nc1ccc(N2CCNCC2)cn1)c1[nH]ncc1Nc1ncnc2sccc12 ... 3.39
COc1ccc(/C=C2/SC(c3c(O)ccc4ccccc34)N(NC(=O)CCCCCCCCC(=O)NN3C(=O)/C(=C\c4ccc(OC)c(OC)c4)SC3c3c(O)ccc4ccccc34)C2=O)cc1OC (stereo not given) ... 46
CCNC1=C(NC(=O)CCl)C(=O)c2ccccc2C1=O ... 44.5

Tell me measured TGI for Cc1nc2ccccc2c(/C=C/c2ccccc2)c1C(=O)/C=C/c1ccccc1 please. 3.19

----------
Overview of reported TGI across a group of compounds:
- Test system: TK-10 renal
- runDescription: NCI tumour cell line growth inhibition, 48 h

Tell me measured TGI for COc1ccc2c(c1)c(=O)c1c(NCCCN(C)C)ccc3ncn2c31 please. 20.1 µM

Tell me measured TGI for COC(=O)/C=C/c1cnc2c(c1)oc(=O)n2C please. > 100 µM

Tell me measured TGI for CC1(C)/C(=N\Nc2ccc([N+](=O)[O-])cc2[N+](=O)[O-])C2CCC1C2 (configuration not stated) please. > 100 µM

Tell me measured TGI for COc1ccc(-c2c3c(nc4[nH]c(=S)[nH]c(=S)c24)CCCC3)cc1OC please. > 100 µM

Tell me measured TGI for O=C(Nc1ccc(N2CCNCC2)cn1)c1[nH]ncc1Nc1ncnc2sccc12 please. 14.8 µM

----------
Overview of reported GI50 across a group of compounds:
- Test system: MCF7 breast
- runDescription: NCI tumour cell line growth inhibition, 48 h

Answered examples (2):
Cc1ccccc1C[P+](c1ccccc1)(c1ccccc1)c1ccccc1 ... 649 nM
COc1c(N2CCN(CN3C(=O)C(=O)c4ccccc43)C(C)C2)c(F)cc2c(=O)c(C(=O)O)cn(C3CC3)c12 (stereo not drawn) ... 33800 nM

Let us move to another entry and its GI50.
Tell me measured GI50 for O=C(Nc1ccc(N2CCNCC2)cn1)c1[nH]ncc1Nc1ncnc2sccc12 please. 1710 nM

----------
- Test system: HCT-15 colon
- runDescription: NCI tumour cell line growth inhibition, 48 h
assayReadout: TGI

Answered examples (10):
CCOC(=O)NC(=O)c1cn(C2OC(COC(=O)CCCCCCCCC(=O)OCC3OC(n4cc(C(=O)NC(=O)OCC)c(=O)[nH]c4=O)C4OC(C)(C)OC34)C3OC(C)(C)OC32)c(=O)[nH]c1=O (stereo not drawn) ... > 100 µM
O=c1oc2ccccc2n1CCCn1c(=O)oc2ccccc21 ... > 100 µM
C/C(=N\Nc1nc2ccccc2o1)c1cc2ccccc2cn1 ... > 20.3 µM
CCCCCCC/C=C1\CCC(CN(C)C)C1=O (stereo not drawn) ... 21.7 µM
Cn1cc2ccccc2c1-c1nc(F)nc(Nc2ccc(N)cc2)n1 ... 26.3 µM
COc1cc(=O)oc(/C=C/C=C/C=C/C(C)=C\C2(C)OC(C)C(C)(O)C2O)c1C (stereo not drawn) ... > 100 µM
COc1ccccc1N1CCN(CCCOc2ccc(C(=O)/C=C3/C(=O)Nc4ccccc43)cc2)CC1 ... > 68.1 µM
COC(=O)[C@]1(Cc2ccc3ccccc3c2)CCCCCCN1C(=O)c1ccccc1 ... > 47.1 µM
O=C(Nc1nccs1)NS(=O)(=O)n1cnc2ccccc21 ... > 100 µM
COc1ccc2c(c1)c(-c1ccc(-c3cn(C)c4ccc(OC)cc34)o1)cn2C ... 29.7 µM

Tell me measured TGI for N#Cc1c2ccc([N+](=O)[O-])cc2c(=O)n2c1sc1ccccc12 please. > 100 µM

Tell me measured TGI for NC(Cc1c[nH]c2cc(F)ccc12)C(=O)O (stereo not drawn) please. > 2500 µM

Tell me measured TGI for CCCc1n(Cc2ccc3ccccc3n2)cc[n+]1Cc1ccc2ccccc2c1 please. 25.4 µM

----------
Overview of reported TGI across a group of molecules:
- System: SNB-19 CNS
- runDescription: NCI tumour cell line growth inhibition, 48 h
Square brackets hold non-standard residues; d marks the D form. Peptide text beside a SMILES is read from it. Phe(4-NO2) = N[CH](Cc1ccc([N+](=O)[O-])cc1)C(=O)O

Answered examples (2):
COC(=O)CCC(NC(=O)C(CCC(=O)OC)NC(=O)C(CCC(=O)OC)NC(=O)C(CCC(=O)OC)NC(=O)C(CCC(=O)OC)NC(=O)C(Cc1ccc([N+](=O)[O-])cc1)NC(=O)C(CCC(=O)OC)NC(=O)C(CCC(=O)OC)NC(=O)C(CCC(=O)OC)NC(=O)C(CCC(=O)OC)NC(=O)C(CCC(=O)OC)NC(C)=O)C(N)=O (stereo not drawn) (Ac-E(OMe)E(OMe)E(OMe)E(OMe)E(OMe)[Phe(4-NO2)]E(OMe)E(OMe)E(OMe)E(OMe)E(OMe)-NH2; configuration not given here) ... > 100 µM
O=C1CSC(c2cccc(Oc3ccccc3)c2)N1c1cccc(Cl)c1Cl (stereo not drawn) ... > 100 µM

Let us move to another entry and its TGI.
Tell me measured TGI for COc1ccc(C(=O)c2cc(C)c(OC)c(C)c2)c(OC)c1N(C(=O)CCl)C(=O)CCl please. > 71.1 µM

----------
- System: MDA-MB-231 breast
- runDescription: NCI tumour cell line growth inhibition, 48 h
Overview of reported TGI across a group of compounds:

Answered examples (3):
CC(C)(C)C(=O)CC(=O)C(F)(F)C(F)(F)C(F)(F)F.[Ag] ... 30.1 µM
COC(=O)[C@H](Cc1cn(C)cn1)NC(=O)[C@@H](NC(=O)Nc1cc(C(F)(F)F)cc(C(F)(F)F)c1)C(C)(C)C ... > 10 µM
CCCCSC1=N/C(=C\c2ccc(N(C)C)cc2)C(Cl)=N1 ... > 100 µM

Tell me measured TGI for O=S(=O)(NCCNc1cc(-c2cn(-c3ccccc3)nc2-c2cccc(O)c2)ccn1)c1ccc(Br)cc1 please. 4.59 µM

Tell me measured TGI for NC(N)=NC(N)=Nc1ccc(S(N)(=O)=O)cc1 please. > 100 µM

----------
- Tested on: A549 NSCLC
- runDescription: NCI tumour cell line growth inhibition, 48 h
assayReadout: TGI

Answered examples (2):
OC[C@@H](O)[C@H](O)[C@@H](O)/C=N/Nc1ccc(Cl)nn1 ... > 100 µM
CCOC(=O)C(=O)C(/C(=N/N(C)C)C(=O)Nc1ccc(C)cc1C)c1nc2ccccc2[nH]c1=O (stereo not drawn) ... > 100 µM

Let us move to another entry and its TGI.
Tell me measured TGI for COC(=O)/C=C/c1cnc2c(c1)oc(=O)n2C please. > 100 µM

----------
- Tested on: MCF7 breast
- runDescription: NCI tumour cell line growth inhibition, 48 h
assayReadout: TGI

Answered examples (2):
CCOC1=NC(C(F)(F)F)(C(F)(F)F)N=C(N2CCCCC2)O1 ... > 100 µM
COc1ccc(-c2c3c(nc4[nH]c(=S)[nH]c(=S)c24)CCCC3)cc1OC ... > 100 µM

Tell me measured TGI for CN(C)C1C(=O)C(C(N)=O)=C(O)C2(O)C(=O)C3=C(O)c4c(O)cccc4C(C)(O)C3CC12 (stereo not drawn) please. > 100 µM

----------
- Test system: ACHN renal
- runDescription: NCI tumour cell line growth inhibition, 48 h
assayReadout: TGI (µM)
// return numeric value only (unit: µM, not printed)

Answered examples (3):
COc1ccc(C[C@H]2NC[C@H](O)[C@H]2OC(C)=O)cc1 ... 0.122
O=c1c(-c2nc3ccccc3[nH]2)cc2ccccc2n1Cc1cn(Cc2ccccc2Cl)nn1 ... 3.27
CCOC(=O)/C=C(/C(=O)OCC)n1ccc(=O)n(CC(=O)OCC)c1=O ... 1.76

Let us move to another entry and its TGI.
Tell me measured TGI for COc1ccc2c(c1)c(-c1ccc(-c3cn(C)c4ccc(OC)cc34)o1)cn2C please. 18.6
